Target: epithelial sodium channel (ENaC) (Homo sapiens, UniProt P37088+P51168+P51170)
Construct: host or cells: primary Human Bronchial Epithelial cells (HBECs), air-liquid interface culture
Sequence (P37088 whole entry): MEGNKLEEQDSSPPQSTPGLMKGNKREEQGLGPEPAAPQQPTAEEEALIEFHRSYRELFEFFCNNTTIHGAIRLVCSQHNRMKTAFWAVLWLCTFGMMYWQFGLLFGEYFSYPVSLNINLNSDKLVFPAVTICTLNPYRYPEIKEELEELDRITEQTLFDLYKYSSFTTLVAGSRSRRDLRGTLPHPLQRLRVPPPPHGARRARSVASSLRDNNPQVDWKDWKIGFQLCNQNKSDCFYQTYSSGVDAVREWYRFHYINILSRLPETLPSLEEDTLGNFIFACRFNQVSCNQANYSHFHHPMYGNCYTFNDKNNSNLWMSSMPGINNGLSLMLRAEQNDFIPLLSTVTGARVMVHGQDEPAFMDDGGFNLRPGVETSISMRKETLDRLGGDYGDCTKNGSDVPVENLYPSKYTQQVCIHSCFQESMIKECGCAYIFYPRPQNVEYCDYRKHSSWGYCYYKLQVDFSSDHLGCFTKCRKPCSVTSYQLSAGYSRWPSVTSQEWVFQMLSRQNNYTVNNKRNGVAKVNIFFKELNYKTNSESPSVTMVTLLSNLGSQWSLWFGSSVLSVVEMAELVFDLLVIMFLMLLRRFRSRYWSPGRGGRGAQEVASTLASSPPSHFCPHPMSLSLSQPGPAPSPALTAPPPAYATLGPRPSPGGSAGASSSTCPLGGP
Sequence (P51168 whole entry): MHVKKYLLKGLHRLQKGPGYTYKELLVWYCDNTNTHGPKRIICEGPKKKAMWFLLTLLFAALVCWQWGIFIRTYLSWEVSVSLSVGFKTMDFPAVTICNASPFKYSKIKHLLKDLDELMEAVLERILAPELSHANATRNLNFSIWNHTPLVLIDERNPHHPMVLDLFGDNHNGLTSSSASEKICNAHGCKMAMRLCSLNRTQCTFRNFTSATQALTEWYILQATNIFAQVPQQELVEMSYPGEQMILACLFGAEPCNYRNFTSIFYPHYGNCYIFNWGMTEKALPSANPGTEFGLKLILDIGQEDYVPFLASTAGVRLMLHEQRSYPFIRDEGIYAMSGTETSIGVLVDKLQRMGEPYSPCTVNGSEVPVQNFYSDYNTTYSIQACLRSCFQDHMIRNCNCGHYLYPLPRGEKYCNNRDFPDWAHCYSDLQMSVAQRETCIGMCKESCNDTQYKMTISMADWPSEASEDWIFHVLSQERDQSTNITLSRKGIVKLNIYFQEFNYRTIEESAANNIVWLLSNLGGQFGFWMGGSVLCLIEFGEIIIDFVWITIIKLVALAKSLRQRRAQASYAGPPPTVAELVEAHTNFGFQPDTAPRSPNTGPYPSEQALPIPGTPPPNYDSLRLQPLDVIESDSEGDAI
Sequence (P51170 whole entry): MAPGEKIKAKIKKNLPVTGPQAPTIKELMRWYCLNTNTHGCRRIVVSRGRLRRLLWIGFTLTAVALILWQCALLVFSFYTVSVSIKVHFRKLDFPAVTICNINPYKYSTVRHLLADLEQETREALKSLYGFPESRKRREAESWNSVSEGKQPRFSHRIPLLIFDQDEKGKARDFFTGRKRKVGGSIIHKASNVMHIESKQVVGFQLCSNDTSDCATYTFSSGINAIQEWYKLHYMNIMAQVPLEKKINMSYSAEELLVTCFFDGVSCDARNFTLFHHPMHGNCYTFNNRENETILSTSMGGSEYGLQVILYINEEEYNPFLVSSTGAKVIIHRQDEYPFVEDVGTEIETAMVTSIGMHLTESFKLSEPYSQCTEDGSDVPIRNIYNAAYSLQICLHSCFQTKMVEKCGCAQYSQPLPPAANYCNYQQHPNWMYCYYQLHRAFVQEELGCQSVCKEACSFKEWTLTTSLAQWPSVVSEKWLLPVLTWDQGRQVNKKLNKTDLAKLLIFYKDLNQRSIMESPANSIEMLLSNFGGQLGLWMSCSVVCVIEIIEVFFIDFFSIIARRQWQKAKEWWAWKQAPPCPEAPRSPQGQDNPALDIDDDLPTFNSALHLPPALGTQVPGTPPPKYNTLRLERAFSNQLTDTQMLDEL
Assay: Short circuit current (ISC) measurements in Human Bronchial Epithelial cells, inhibition of amiloride-sensitive ISC
Assay type: cell-based
Conditions: inhibition of the amiloride-sensitive ISC; Human Bronchial Epithelial cells (HBECs) at air-liquid interface; compound added to apical chamber; read-out: IC50
pIC50: −log10 of the molar value.
QUANTITY KIND: pIC50

{"COMPOUND": "CC(C)(CCOCc1ccccc1)C[C@H]1CN/C(=N/C(=O)c2nc(Cl)c(N)nc2N)N1", "pIC50": 7.96}

[P] Nc1nc(N)c(C(=O)/N=C2\NCC3(CCN(C(=O)NCCCc4ccccn4)CC3)N2)nc1Cl
[Q] Nc1nc(N)c(C(=O)/N=C2\NCC3(CCN(C(=O)C4CC(=O)N(CCCn5cccc5)C4)CC3)N2)nc1Cl (stereo not shown)
[R] Nc1nc(N)c(C(=O)/N=C2\NCC3(CCN(C(=O)c4cn(S(=O)(=O)c5ccccc5)c5ccccc45)CC3)N2)nc1Cl
Task item: Falling order of pIC50, please. Returns: the labels arranged in the requested order.
Reply: R, Q, P
(R: 8.26, Q: 7.37, P: 7.03)

Source of measurements: patent US8697687B2
